- Run Description: Intrinsic clearance in human liver microsomes at 1 uM peincubated for 10 mins followed by NADPH addition and measured 60 mins by LC-MS/MS analysis
- Format: ADME, Microsome
- Protocol Conditions: time 70 min, read-out: CLH
Reported Property: CLint scaled at 1 µM (L/h/kg)

Smiles Code	Quantitative Readout
Cc1nc(CN2CCC[C@H]2c2ncccc2C)cc(N2CCN(C)CC2)n1	3.96

###

- Assay System: CYP2D6 (Homo sapiens, UniProt P10635)
- Sequence (P10635 whole entry): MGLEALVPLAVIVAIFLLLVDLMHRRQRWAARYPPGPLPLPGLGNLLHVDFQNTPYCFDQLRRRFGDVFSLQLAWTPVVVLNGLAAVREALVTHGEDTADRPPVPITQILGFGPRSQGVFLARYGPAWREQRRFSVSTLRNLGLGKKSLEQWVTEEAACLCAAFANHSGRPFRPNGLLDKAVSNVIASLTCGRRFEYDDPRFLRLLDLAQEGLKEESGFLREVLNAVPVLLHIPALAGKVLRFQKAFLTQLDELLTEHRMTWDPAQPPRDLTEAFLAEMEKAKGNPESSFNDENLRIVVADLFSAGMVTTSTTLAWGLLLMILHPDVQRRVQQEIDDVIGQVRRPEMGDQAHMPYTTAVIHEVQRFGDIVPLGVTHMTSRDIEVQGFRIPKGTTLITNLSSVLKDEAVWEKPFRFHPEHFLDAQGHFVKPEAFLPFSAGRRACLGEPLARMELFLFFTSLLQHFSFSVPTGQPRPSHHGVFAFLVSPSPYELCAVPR
- Run Description: Inhibition of CYP2D6 in human liver microsomes at 10 uM using dextromethorphan as substrate preincubated for 10 mins followed by NADPH addition measured after 10 mins by LC-MS/MS analysis relative to control
- Assay type: ADME
- Protocol Conditions: probe dextromethorphan, time 20 min
Reported Property: inhibition at 10 min, 10 µM (%)

Smiles Code	Assay System	Quantitative Readout
Cc1nc(CN2CCC[C@H]2c2ncccc2C)cc(N2CCN(C)CC2)n1	CYP2D6 (Homo sapiens, UniProt P10635)	-5

###

- Assay System: CYP2C19 (Homo sapiens, UniProt P33261)
- Sequence (P33261 whole entry): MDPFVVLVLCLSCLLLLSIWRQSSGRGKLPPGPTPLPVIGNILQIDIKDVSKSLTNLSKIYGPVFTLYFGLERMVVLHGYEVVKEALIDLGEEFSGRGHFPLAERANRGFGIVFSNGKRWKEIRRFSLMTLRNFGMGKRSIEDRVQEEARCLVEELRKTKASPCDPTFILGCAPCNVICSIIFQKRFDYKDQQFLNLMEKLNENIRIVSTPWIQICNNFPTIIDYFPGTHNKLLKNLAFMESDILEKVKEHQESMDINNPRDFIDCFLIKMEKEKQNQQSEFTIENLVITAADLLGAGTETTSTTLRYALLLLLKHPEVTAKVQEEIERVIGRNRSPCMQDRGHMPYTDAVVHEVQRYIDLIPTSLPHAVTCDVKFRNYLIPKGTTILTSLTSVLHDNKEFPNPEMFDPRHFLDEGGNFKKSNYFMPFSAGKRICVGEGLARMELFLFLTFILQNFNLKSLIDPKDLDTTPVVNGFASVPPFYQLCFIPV
- Run Description: Inhibition of CYP2C19 in human liver microsomes at 10 uM using S-mephenytoin as substrate preincubated for 10 mins followed by NADPH addition measured after 10 mins by LC-MS/MS analysis relative to control
- Type: ADME
- Protocol Conditions: probe S-mephenytoin, time 20 min

Smiles Code	inhibition at 10 min, 10 µM / %
Cc1nc(CN2CCC[C@H]2c2ncccc2C)cc(N2CCN(C)CC2)n1	11

###

- Run Description: Half life in rat liver microsomes at 1 uM peincubated for 10 mins followed by NADPH addition and measured 60 mins by LC-MS/MS analysis
- Type: ADME, Microsome
- Protocol Conditions: time 70 min
Reported values of half-life at 1 µM for individual entries
Reported Property: half-life at 1 µM (min)

Compound	Reported Property	Bound Operator	Quantitative Readout
CN1CCN(c2cc(CN(C)C3CCCc4cccnc43)nc(N)n2)CC1 (stereo not given)	half-life at 1 µM	=	3.24
CN1CCN(c2cc(CN(C)C3CCCc4cccnc43)nc(C3CC3)n2)CC1 (stereo not given)	half-life at 1 µM	=	1.02
Cc1nc(CN(C)[C@H]2CCCc3cccnc32)cc(N2CCN(C)[C@@H](C)C2)n1	half-life at 1 µM	=	1.6
CCN1CCN(c2cc(CN(C)[C@H]3CCCc4cccnc43)nc(C)n2)CC1	half-life at 1 µM	=	1.14
Cc1nc(CN(C)[C@H]2CCCc3cccnc32)cc(N2CCN(C)CC2)n1	half-life at 1 µM	=	1.59
Cc1nc(CN(C)[C@H]2CCCc3cccnc32)cc(N2CCN3CCC[C@H]3C2)n1	half-life at 1 µM	<	1
Cc1nc(CN(C)C2CCCc3cccnc32)c(C#N)c(N2CCN(C)CC2)n1 (stereo not given)	half-life at 1 µM	=	1.51
Cc1nc(CN(C)[C@H]2CCCc3cccnc32)cc(N2CCN(C)[C@H](C)C2)n1	half-life at 1 µM	<	1
Cc1nc(CN2CCC[C@H]2c2ncccc2C)cc(N2CCN(C)CC2)n1	half-life at 1 µM	=	20.2
COc1nc(CN(C)C2CCCc3cccnc32)cc(N2CCN(C)CC2)n1 (stereo not given)	half-life at 1 µM	=	2.2

###

- Run Description: Half life in human liver microsomes at 1 uM peincubated for 10 mins followed by NADPH addition and measured 60 mins by LC-MS/MS analysis
- Assay type: ADME, Microsome
- Protocol Conditions: time 70 min

Smiles Code	half-life at 1 µM [min]
Cc1nc(CN2CCC[C@H]2c2ncccc2C)cc(N2CCN(C)CC2)n1	26.2

meta.source: ChEMBL document CHEMBL4765416
